The values you see were collected from patent US20140356358A1.

- SYSTEM NAME: T1, cynomolgus monkey FcRn (cynomolgus monkey, UniProt Q8SPV9 24-297; Q8SPW0 21-119, limits assumed)
- T1 construct: also called Cynomolgus FcRn
- T1 sequence (Q8SPV9 24-297 limits assumed, chain 1 of 2): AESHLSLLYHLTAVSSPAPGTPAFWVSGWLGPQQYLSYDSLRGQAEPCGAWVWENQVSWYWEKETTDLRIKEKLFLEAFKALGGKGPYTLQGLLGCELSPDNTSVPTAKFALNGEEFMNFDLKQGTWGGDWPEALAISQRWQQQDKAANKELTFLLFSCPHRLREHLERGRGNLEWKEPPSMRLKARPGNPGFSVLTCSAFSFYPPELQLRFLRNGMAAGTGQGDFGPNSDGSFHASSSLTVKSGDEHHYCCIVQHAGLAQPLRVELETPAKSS
- T1 sequence (Q8SPW0 21-119 limits assumed, chain 2 of 2): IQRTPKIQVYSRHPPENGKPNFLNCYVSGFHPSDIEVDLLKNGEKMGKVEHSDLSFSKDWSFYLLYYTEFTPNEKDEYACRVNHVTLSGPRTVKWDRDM
- PROTOCOL NOTES: SPR competition pH 5.5
pEC50: −log10 of the molar value.
Everything with pEC50 lower than 8 is 0; everything else, including exactly 8, is 1.

Quick check: does variant Fc-fragment Fc-5-106 (other, soluble elsewhere) EPKSCDKTHTCPPCPAPELLGGPSVFLFPPKPKDTLMISRTPEVTCVVVDVSHEDPEVKFNWYVDGVEVHNAKTKPREEQYNSTYRVVSVLTVLHQDWLNGKEYKCKVSNKALPAPIEKTISKAKGQPREPQVYTLPPSRDELTKNQVSLTCLVKGFYPSDIAVEWESNGGCVFNMFNCGGGQPENNYKTTPPVLDSDGSFFLYSKLTVDKSRWQQGNVFSCSVMHEALHNHYTQKSLSLSPGK have pEC50 greater than or equal to 8?
1

Also need variant Fc-fragment Fc-5-97 (other, library L5 isolate) EPKSCDKTHTCPPCPAPELLGGPSVFLFPPKPKDTLMISRTPEVTCVVVDVSHEDPEVKFNWYVDGVEVHNAKTKPREEQYNSTYRVVSVLTVLHQDWLNGKEYKCKVSNKALPAPIEKTISKAKGQPREPQVYTLPPSRDELTKNQVSLTCLVKGFYPSDIAVEWESNGGCNMLWGSCGGGQPENNYKTTPPVLDSDGSFFLYSKLTVDKSRWQQGNVFSCSVMHEALHNHYTQKSLSLSPGK , thanks.
0

Quick one: variant Fc-fragment Fc-5-70 (other, library L5 isolate) EPKSCDKTHTCPPCPAPELLGGPSVFLFPPKPKDTLMISRTPEVTCVVVDVSHEDPEVKFNWYVDGVEVHNAKTKPREEQYNSTYRVVSVLTVLHQDWLNGKEYKCKVSNKALPAPIEKTISKAKGQPREPQVYTLPPSRDELTKNQVSLTCLVKGFYPSDIAVEWESNGGCMVPFSMCGGGQPENNYKTTPPVLDSDGSFFLYSKLTVDKSRWQQGNVFSCSVMHEALHNHYTQKSLSLSPGK
0

Try this binder too: variant Fc-fragment Fc-5-79 (other, library L5 isolate) EPKSCDKTHTCPPCPAPELLGGPSVFLFPPKPKDTLMISRTPEVTCVVVDVSHEDPEVKFNWYVDGVEVHNAKTKPREEQYNSTYRVVSVLTVLHQDWLNGKEYKCKVSNKALPAPIEKTISKAKGQPREPQVYTLPPSRDELTKNQVSLTCLVKGFYPSDIAVEWESNGGCVNTWWSCGGGQPENNYKTTPPVLDSDGSFFLYSKLTVDKSRWQQGNVFSCSVMHEALHNHYTQKSLSLSPGK
0
